assay-system: Chymotrypsinogen A (Bos taurus, UniProt P00766)
metric-name: pKi
Hey, just a heads up that pKi is the negative log base 10 of the concentration in molar.

Task item: # pKi lookup, item CCC(C)(C)C(NC(=O)[C@@H]1CCCN1C(=O)[C@@H](NC(=O)OCc1ccccc1)C(c1ccccc1)c1ccccc1)B1O[C@@H]2CC3CC(C3(C)C)[C@]2(C)O1 (stereo partly drawn)
Reply: 5.54

Task item: Can you look up the measured pKi of COCCC[C@@H](NC(=O)[C@@H]1CCCN1C(=O)[C@@H](Cc1ccccc1)NC(=O)OCc1ccccc1)B1O[C@@H]2CC3CC(C3(C)C)[C@]2(C)O1 (stereo in doubt; 9a) for me?
Reply: 5.92

Task item: Fill in: pKi of CC1(C)C2CC1[C@]1(C)OB(C(Cc3ccccc3)NC(=O)[C@@H]3CCCN3C(=O)[C@@H](NC(=O)OCc3ccccc3)C(c3ccccc3)c3ccccc3)O[C@@H]1C2 (stereo partly drawn) is ___
Reply: 7.68

---

assay-system: UniProt P00734
method: Binding affinity against alpha thrombin
metric-name: Ki (nM)
Write the value in nM as a bare number.

Task item: Name the recorded Ki for CCC(C)(C)C(NC(=O)[C@@H]1CCCN1C(=O)[C@H](Cc1ccccc1)NC(=O)OCc1ccccc1)B1O[C@@H]2CC3CC(C3(C)C)[C@]2(C)O1 (stereo partly drawn) .
Reply: 7

Task item: Please report the recorded Ki for CCCCCC(NC(=O)[C@@H]1CCCN1C(=O)[C@@H](NC(=O)OCc1ccccc1)C(c1ccccc1)c1ccccc1)B1O[C@@H]2CC3CC(C3(C)C)[C@]2(C)O1 (stereo partly drawn) .
Reply: 42

Task item: So what's the measured Ki for this one? CCC(C)(C)C(NC(=O)[C@@H]1CCCN1C(=O)[C@H](Cc1ccc2ccccc2c1)NC(=O)OCc1ccccc1)B1O[C@@H]2CC3CC(C3(C)C)[C@]2(C)O1 (stereo partly drawn)
Reply: 82

---

assay-system: Prothrombin (Homo sapiens, UniProt P00734)
method: Binding affinity against gamma thrombin
pKi: −log10 of the molar value.
Classify by measured pKi: condition met if it is equal to or exceeds 8, condition not met if it is smaller.

Task item: Decide: is the reported value of pKi for COCCC[C@@H](NC(=O)[C@@H]1CCCN1C(=O)[C@@H](Cc1ccccc1)NC(=O)OCc1ccccc1)B1O[C@@H]2CC3CC(C3(C)C)[C@]2(C)O1 (stereo in doubt; 9a) equal to or greater than 8?
Reply: condition not met

Task item: Evaluate CCCCCC(NC(=O)[C@@H]1CCCN1C(=O)[C@H](Cc1ccccc1)NC(=O)OCc1ccccc1)B1O[C@@H]2CC3CC(C3(C)C)[C@]2(C)O1 (stereo in doubt; 3) : pKi at minimum 8?
Reply: condition not met

Task item: Does the molecule CC1(C)C2CC1[C@]1(C)OB(C(Cc3ccccc3)NC(=O)[C@@H]3CCCN3C(=O)[C@@H](NC(=O)OCc3ccccc3)C(c3ccccc3)c3ccccc3)O[C@@H]1C2 (stereo partly specified) have recorded pKi that is 8 or more?
Reply: condition not met

Task item: Quick check, pKi >= 8? COCCCC(NC(=O)[C@@H]1CCCN1C(=O)[C@@H](NC(=O)OCc1ccccc1)C(c1ccccc1)c1ccccc1)B1O[C@@H]2CC3CC(C3(C)C)[C@]2(C)O1 (stereo partly specified)
Reply: condition met

Task item: Is pKi for CCC(C)(C)C(NC(=O)[C@@H]1CCCN1C(=O)[C@H](Cc1ccc2ccccc2c1)NC(=O)OCc1ccccc1)B1O[C@@H]2CC3CC(C3(C)C)[C@]2(C)O1 (stereo partly specified) at or above 8?
Reply: condition not met

---

assay-system: Plasma kallikrein (Homo sapiens)
method: Binding affinity against plasma kallikrein
metric-name: pKi
Just so you know, pKi here is -log10 of the concentration in molar units; reply with that number alone.

Task item: Form field - read-out: pKi; system: Plasma kallikrein (Homo sapiens); submitted item: COCCC[C@@H](NC(=O)[C@@H]1CCCN1C(=O)[C@@H](Cc1ccccc1)NC(=O)OCc1ccccc1)B1O[C@@H]2CC3CC(C3(C)C)[C@]2(C)O1 (stereo in doubt; 9a)
Reply: 5.21

Task item: Find the measured pKi: item CCCCCC(NC(=O)[C@@H]1CCCN1C(=O)[C@@H](NC(=O)OCc1ccccc1)C(c1ccccc1)c1ccccc1)B1O[C@@H]2CC3CC(C3(C)C)[C@]2(C)O1 (some centres undefined) , target or system Plasma kallikrein (Homo sapiens).
Reply: 3.80

Task item: Form field - read-out: pKi; system: Plasma kallikrein (Homo sapiens); submitted item: CC1(C)C2CC1[C@]1(C)OB(C(Cc3ccccc3)NC(=O)[C@@H]3CCCN3C(=O)[C@@H](NC(=O)OCc3ccccc3)C(c3ccccc3)c3ccccc3)O[C@@H]1C2 (some centres undefined)
Reply: 5.02

Task item: Look up pKi with Plasma kallikrein (Homo sapiens) for this molecule: CCC(C)(C)C(NC(=O)[C@@H]1CCCN1C(=O)[C@H](Cc1ccc2ccccc2c1)NC(=O)OCc1ccccc1)B1O[C@@H]2CC3CC(C3(C)C)[C@]2(C)O1 (some centres undefined)
Reply: 3.43

Task item: Lookup: pKi / Plasma kallikrein (Homo sapiens) / CCC(C)(C)C(NC(=O)[C@@H]1CCCN1C(=O)[C@H](Cc1ccccc1)NC(=O)OCc1ccccc1)B1O[C@@H]2CC3CC(C3(C)C)[C@]2(C)O1 (some centres undefined)
Reply: 5.02

Task item: Given the entry CCCCCC(NC(=O)[C@@H]1CCCN1C(=O)[C@H](Cc1ccccc1)NC(=O)OCc1ccccc1)B1O[C@@H]2CC3CC(C3(C)C)[C@]2(C)O1 (stereo in doubt; 3) , what pKi was observed with Plasma kallikrein (Homo sapiens)?
Reply: 3.92

Task item: Write down the reported pKi of COCCCC(NC(=O)[C@@H]1CCCN1C(=O)[C@@H](NC(=O)OCc1ccccc1)C(c1ccccc1)c1ccccc1)B1O[C@@H]2CC3CC(C3(C)C)[C@]2(C)O1 (some centres undefined) , test system: Plasma kallikrein (Homo sapiens).
Reply: 4.47

---

A set of molecules tested on UniProtKB P00749, with measured Ki:

Task item: Query (molecule): CCC(C)(C)C(NC(=O)[C@@H]1CCCN1C(=O)[C@@H](NC(=O)OCc1ccccc1)C(c1ccccc1)c1ccccc1)B1O[C@@H]2CC3CC(C3(C)C)[C@]2(C)O1 (some centres not stated) ; field requested: Ki
Reply: > 63 µM

Task item: Look up Ki for this molecule: CC1(C)C2CC1[C@]1(C)OB(C(Cc3ccccc3)NC(=O)[C@@H]3CCCN3C(=O)[C@@H](NC(=O)OCc3ccccc3)C(c3ccccc3)c3ccccc3)O[C@@H]1C2 (some centres not stated)
Reply: > 48 µM

---

metric-name: Ki (µM)
Just the number in µM, nothing appended.

Task item: Give the reported Ki for COCCC[C@@H](NC(=O)[C@@H]1CCCN1C(=O)[C@@H](Cc1ccccc1)NC(=O)OCc1ccccc1)B1O[C@@H]2CC3CC(C3(C)C)[C@]2(C)O1 (stereo in doubt; 9a) (system: Coagulation factor X (Homo sapiens, UniProt P00742)).
Sequence (P00742 41-179 limits assumed): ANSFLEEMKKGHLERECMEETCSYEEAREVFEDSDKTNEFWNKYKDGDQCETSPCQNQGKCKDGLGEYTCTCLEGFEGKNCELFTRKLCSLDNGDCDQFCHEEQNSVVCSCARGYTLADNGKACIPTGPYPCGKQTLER
Sequence (P00742 235-488 limits assumed): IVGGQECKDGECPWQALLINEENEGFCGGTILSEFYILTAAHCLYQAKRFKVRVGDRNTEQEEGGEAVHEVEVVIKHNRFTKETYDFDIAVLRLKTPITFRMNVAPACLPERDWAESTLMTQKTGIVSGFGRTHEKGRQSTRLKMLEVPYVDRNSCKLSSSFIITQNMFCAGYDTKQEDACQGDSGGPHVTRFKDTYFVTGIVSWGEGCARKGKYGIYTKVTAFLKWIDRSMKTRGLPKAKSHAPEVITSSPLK
Reply: 3.1

Task item: Could you share what Ki was measured for CC1(C)C2CC1[C@]1(C)OB(C(Cc3ccccc3)NC(=O)[C@@H]3CCCN3C(=O)[C@@H](NC(=O)OCc3ccccc3)C(c3ccccc3)c3ccccc3)O[C@@H]1C2 (stereo partly drawn) , tested on Coagulation factor X (Homo sapiens, UniProt P00742)?
Reply: 4.3

Task item: Tell me reported Ki for CC1(C)C2CC1[C@]1(C)OB(C(Cc3ccccc3)NC(=O)[C@@H]3CCCN3C(=O)[C@H](Cc3ccccc3)NC(=O)OCc3ccccc3)O[C@@H]1C2 (stereo partly drawn) , tested with Coagulation factor X (Homo sapiens, UniProt P00742).
Reply: 1.2

---

assay-system: Plasminogen (Homo sapiens, UniProt P00747)
Sequence (P00747 97-580 limits assumed): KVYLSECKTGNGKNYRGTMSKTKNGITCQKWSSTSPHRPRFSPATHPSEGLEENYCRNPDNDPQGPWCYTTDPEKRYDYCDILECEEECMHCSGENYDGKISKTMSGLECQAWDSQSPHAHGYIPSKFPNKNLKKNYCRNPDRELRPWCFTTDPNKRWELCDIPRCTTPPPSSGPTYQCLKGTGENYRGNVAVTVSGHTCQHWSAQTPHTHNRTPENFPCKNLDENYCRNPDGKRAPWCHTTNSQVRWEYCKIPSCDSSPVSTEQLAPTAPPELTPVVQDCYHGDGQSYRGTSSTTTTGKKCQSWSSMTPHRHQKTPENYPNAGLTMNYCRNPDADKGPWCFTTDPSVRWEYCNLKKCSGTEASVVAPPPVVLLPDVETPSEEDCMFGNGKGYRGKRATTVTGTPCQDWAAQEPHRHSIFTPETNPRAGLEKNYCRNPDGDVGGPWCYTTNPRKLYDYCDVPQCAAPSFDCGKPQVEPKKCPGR
Sequence (P00747 581-810 limits assumed): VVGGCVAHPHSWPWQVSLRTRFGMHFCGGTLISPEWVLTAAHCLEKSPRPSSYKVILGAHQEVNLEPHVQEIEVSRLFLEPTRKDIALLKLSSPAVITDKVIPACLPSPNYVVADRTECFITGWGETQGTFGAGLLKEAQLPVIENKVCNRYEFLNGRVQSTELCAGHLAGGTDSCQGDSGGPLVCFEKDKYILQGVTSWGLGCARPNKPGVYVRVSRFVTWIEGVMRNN
method: Binding affinity against plasmin
I'd be grateful if you could share measured pKi for these entries.
For clarity, pKi is expressed as the negative log10 of concentration in mol/L.

Task item: Tell me the measured pKi of COCCCC(NC(=O)[C@@H]1CCCN1C(=O)[C@@H](NC(=O)OCc1ccccc1)C(c1ccccc1)c1ccccc1)B1O[C@@H]2CC3CC(C3(C)C)[C@]2(C)O1 (stereo partly specified) , please.
Reply: 4.92

Task item: Would you kindly share the measured pKi for CC1(C)C2CC1[C@]1(C)OB(C(Cc3ccccc3)NC(=O)[C@@H]3CCCN3C(=O)[C@@H](NC(=O)OCc3ccccc3)C(c3ccccc3)c3ccccc3)O[C@@H]1C2 (stereo partly specified) ?
Reply: 5.52

Task item: Look at this compound and give its reported pKi. CCC(C)(C)C(NC(=O)[C@@H]1CCCN1C(=O)[C@@H](NC(=O)OCc1ccccc1)C(c1ccccc1)c1ccccc1)B1O[C@@H]2CC3CC(C3(C)C)[C@]2(C)O1 (stereo partly specified)
Reply: 4.77

Task item: Reported pKi, compound CCCCCC(NC(=O)[C@@H]1CCCN1C(=O)[C@@H](NC(=O)OCc1ccccc1)C(c1ccccc1)c1ccccc1)B1O[C@@H]2CC3CC(C3(C)C)[C@]2(C)O1 (stereo partly specified) : ____
Reply: 4.62

Task item: Any idea what pKi was measured for CC1(C)C2CC1[C@]1(C)OB(C(Cc3ccccc3)NC(=O)[C@@H]3CCCN3C(=O)[C@H](Cc3ccccc3)NC(=O)OCc3ccccc3)O[C@@H]1C2 (stereo partly specified) ?
Reply: 5.35

Task item: Quick one: pKi for CCC(C)(C)C(NC(=O)[C@@H]1CCCN1C(=O)[C@H](Cc1ccccc1)NC(=O)OCc1ccccc1)B1O[C@@H]2CC3CC(C3(C)C)[C@]2(C)O1 (stereo partly specified) ?
Reply: 5.26
